Ref: patent US9878985B2

Reported LogP values for a set of molecules
Assay: Log P by HPLC on reversed phase columns (EEC directive 79/831 Annex V.A8)
Assay type: physicochemical
Conditions: Table 2 (amines III-a); method [a]: LC-UV, acidic range, 0.1% formic acid in water and acetonitrile

Observe how each entry below is paired with its result.
molecule="CCC1(C)Cc2c(N)cccc21 (centres unmarked)" reported_measurement=1.82^[a]
molecule=Nc1cccc2c1CC21CCCC1 reported_measurement=2.03^[a]
molecule=CC1(C)Cc2c(N)cccc21 reported_measurement=1.36^[a]

Please report LogP for the following molecule: "Nc1cccc2c1CC21CCCCC1"
2.37^[a]

* * *

Assay: Log P by HPLC on reversed phase columns (EEC directive 79/831 Annex V.A8)
Format: physicochemical
Conditions: Table 1; method [a]: LC-UV, acidic range, 0.1% formic acid in water and acetonitrile
quantity.measured: LogP

Return value of LogP for input "O=C(Nc1cccc2c1CC21CCCCC1)c1cccnc1C(F)F" , no commentary.
3.80^[a]

Answer with the recorded LogP of "Cn1nc(C(F)F)c(C(=O)Nc2cccc3c2CC32CCCC2)c1Cl" only.
4.14^[a]

Specify LogP for Cn1cc(C(=O)Nc2cccc3c2CC3c2ccccc2)c(C(F)F)n1 (stereo not drawn) and stop.
3.20^[a]

Give the reported LogP for this compound. "CCC1(CC)Cc2c(NC(=O)c3c(C(F)F)nn(C)c3F)cccc21"
4.11^[a]

Note down LogP recorded for "Cn1cc(C(=O)Nc2cccc3c2CC32CCCCC2)c(C(F)F)n1"
3.94^[a]

Specify LogP for "O=C(Nc1cccc2c1CC21CCCC1)c1cccnc1C(F)F" and stop.
3.46^[a]
